Where these numbers come from: paper PMC12058161

- measurement_notes: in vivo
- measurement_context: male, Sprague Dawley, rat, po, 100 mg/kg
metric_name: AUC(0-inf)

Using the record for C[C@@H]1CC[C@H]2[C@@H](C)C(=O)O[C@@H]3O[C@@]4(C)CC[C@@H]1[C@]32OO4 [ART, Artemisinin, reference compound] , report its AUC(0-inf).
418 ng·h/mL

====

- measurement_notes: in vivo
- measurement_context: male, Sprague Dawley, rat, po, 100 mg/kg, MRT(0-∞)
metric_name: MRT inf (h)
Give the quantity in h, number only.

Using the record for C[C@@H]1CC[C@H]2[C@@H](C)C(=O)O[C@@H]3O[C@@]4(C)CC[C@@H]1[C@]32OO4 [ART, Artemisinin, reference compound] , report its MRT inf.
1.67
